Compiled notes: published pIC50 values involving Cytosolic phospholipase A2 (Homo sapiens).
# pIC50: negative log10 of molar concentration; output just the value

// worked examples, pIC50 included
SUBSTANCE SMILES: Cc1ccc(S(=O)(=O)NCCc2c(CCCc3ccc(C(=O)O)cc3)c3cc(Cl)ccc3n2C(c2ccccc2)c2ccccc2)cc1Cl
OBSERVED PROPERTY: pIC50
ASSAY RESULT: 6.60
--
SUBSTANCE SMILES: CS[C@H]1C[C@@H](C(=O)Nc2ccc(/C=C3\SC(=O)NC3=O)cc2)N(S(=O)(=O)c2c(Cl)cccc2Cl)C1
OBSERVED PROPERTY: pIC50
ASSAY RESULT: 4.82
--
SUBSTANCE SMILES: O=C(O)c1ccc(CCCc2c(CCNS(=O)(=O)Cc3ccccc3)n(C(c3ccccc3)c3ccccc3)c3ccc(Cl)cc23)cc1
OBSERVED PROPERTY: pIC50
ASSAY RESULT: 6.74
--
SUBSTANCE SMILES: O=C(O)c1ccc(OCCc2c(CCNS(=O)(=O)Cc3ccc([N+](=O)[O-])cc3)n(C(c3ccccc3)c3ccccc3)c3ccc(Cl)cc23)cc1
OBSERVED PROPERTY: pIC50
ASSAY RESULT: 6.51
--
SUBSTANCE SMILES: O=C(O)c1ccc(OCCc2c(CCNS(=O)(=O)c3cc(Cl)c(F)cc3F)n(C(c3ccccc3)c3ccccc3)c3ccc(Cl)cc23)cc1
OBSERVED PROPERTY: pIC50
ASSAY RESULT: 6.34

Moving on to another molecule below.
Item: `O=C(O)c1ccc(OCCc2c(CCNS(=O)(=O)CCN3CCOCC3)n(C(c3ccccc3)c3ccccc3)c3ccc(Cl)cc23)cc1` | pIC50: 5.92

* * *

// compounds with reported log10 IC50 on Cytosolic phospholipase A2 (Homo sapiens, UniProt P47712), multi-publication
Recall that a logarithmic scale is used here: each number is log10 of IC50 in nM.

Below are worked cases with known answers.
COMPOUND: CCN(CC)S(=O)(=O)c1ccc(CS(=O)(=O)NCCc2c(CCOc3ccc(C(=O)O)cc3)c3cc(Cl)ccc3n2C(c2ccccc2)c2ccccc2)cc1
log10 IC50: 2.30
//
COMPOUND: CS[C@H]1C[C@@H](C(=O)Nc2ccc(C=C3SC(=S)NC3=O)cc2)N(C(=O)c2ccc(C(F)(F)F)cc2)C1
log10 IC50: 4.18

# compound `Cc1cc(C)c(CS[C@H]2C[C@@H](C(=O)Nc3ccc(C=C4SC(=O)NC4=O)cc3)N(C(=O)c3ccccc3)C2)c(C)c1` ; its log10 IC50 = 3.58

So, `CCCCCCCCCCCCCC(=O)N1C[C@@H](SC)C[C@H]1C(=O)Nc1ccc(C=C2SC(=S)NC2=O)cc1` ? Its log10 IC50 was 3.63

The compound identified as CC(C)CN(C1CC(CNC(=O)c2ccc(C=C3SC(=O)NC3=O)s2)N(C(=O)c2ccccc2C(=O)c2ccc(F)cc2F)C1)C(c1ccccc1)c1ccccc1 (centres unmarked) registered its log10 IC50 at 0.32

// `O=C(O)c1ccc(OCCc2c(CCNS(=O)(=O)Cc3ccc(F)cc3)n(C(c3ccccc3)c3ccccc3)c3ccc(Cl)cc23)cc1` : log10 IC50 value = 2.90

Lookup result for `O=C1NC(=O)/C(=C/c2ccc(C(=O)NCC[C@@H]3C[C@@H](OCc4ccccc4-c4ccccc4)CN3C(=O)c3ccccc3C(=O)c3ccc(F)cc3)cc2)S1` ; measured log10 IC50: 3.67

Form: compound = CC(C)C1CCCN1CCS(=O)(=O)NCCc1c(CCOc2ccc(C(=O)O)cc2)c2cc(Cl)ccc2n1C(c1ccccc1)c1ccccc1 (centres unmarked) ; log10 IC50 = 2.86

For reference, reported log10 IC50 for `O=C(O)c1ccc(OCCc2c(CCNS(=O)(=O)Cc3ccc(Cl)c(Cl)c3)n(C(c3ccccc3)c3ccccc3)c3cc(Cl)ccc23)cc1` stands at 2.34

The reported log10 IC50 of the compound Cc1cc(C)cc(C(SC2CC(CNC(=O)c3ccc(C=C4SC(=O)NC4=O)cc3)N(C(=O)c3ccccc3C(=O)c3ccc(F)cc3F)C2)(c2ccccc2)c2ccccc2)c1 (centres unmarked) was 0.11

* * *

Header: pIC50 / Cytosolic phospholipase A2 (Homo sapiens) / multiple publications
Please keep in mind that pIC50 is minus log10 of the molar concentration; only the number is needed.

Some molecules with recorded pIC50:
MOLECULE: O=C1NC(=O)/C(=C/c2ccc(COC[C@@H]3C[C@H](SC(c4ccccc4)(c4ccccc4)c4ccccc4)CN3C(=O)CCc3ccccc3)cc2)S1
ASSAY RESULT: 5.96
--
MOLECULE: CC1(C)C2CC[C@]1(CS(=O)(=O)NCCc1c(CCOc3ccc(C(=O)O)cc3)c3cc(Cl)ccc3n1C(c1ccccc1)c1ccccc1)C(=O)C2
ASSAY RESULT: 5.70
--
MOLECULE: O=C1NC(=S)S/C1=C\c1ccc(NC(=O)[C@@H]2C[C@@H](OCc3ccccc3-c3ccccc3)CN2C(=O)c2ccccc2C(=O)c2ccc(F)cc2)s1
ASSAY RESULT: 6.00
--
MOLECULE: CN(c1ccccc1)c1cccc(O[C@@H]2C[C@@H](CNC(=O)c3ccc(/C=C4\SC(=O)NC4=O)cc3)N(C(=O)c3ccccc3C(=O)c3ccc(F)cc3)C2)c1
ASSAY RESULT: 7.30
--
MOLECULE: O=C1NC(=S)O/C1=C\c1ccc(NC(=O)[C@@H]2C[C@H](SC(c3ccccc3)(c3ccccc3)c3ccccc3)CN2S(=O)(=O)c2ccc(-c3ccccc3)cc2)cc1
ASSAY RESULT: 5.49

Quick note, pIC50 for `O=C(O)c1ccc(CCCc2c(CCNS(=O)(=O)Cc3ccc(Cl)c(Cl)c3)n(C(c3ccccc3)c3ccccc3)c3ccccc23)cc1` landed at 6.70

The recorded pIC50 for `Cc1cccc(Cl)c1S(=O)(=O)NCCc1c(CCOc2ccc(C(=O)O)cc2)c2cc(Cl)ccc2n1C(c1ccccc1)c1ccccc1` is 6.80

Consider `O=C(O)c1ccc(OCCc2c(CCNS(=O)(=O)c3ccc(Cl)c4nonc34)n(C(c3ccccc3)c3ccccc3)c3ccc(Cl)cc23)cc1` . Its measured pIC50 is 5.96

Sure, the documented pIC50 for `CS[C@H]1C[C@@H](C(=O)Nc2ccc(C=C3SC(=O)NC3=O)cc2)N(C(=O)c2ccc(-c3ccccc3)cc2)C1` is 4.66

* * *

Note to self: these compounds have pIC50 reported for Cytosolic phospholipase A2 (Homo sapiens) in various publications.
# pIC50: negative log10 of molar concentration; output just the value

Solved entries:
COMPOUND: O=C1NC(=O)C(=Cc2ccc(C(=O)NCC3CC(SC(c4ccccc4)(c4cccc(F)c4)c4cccc(F)c4)CN3C(=O)c3ccccc3C(=O)c3ccc(F)cc3F)cc2)S1 (stereo not drawn)
pIC50: 8.59
--
COMPOUND: O=C1NC(=S)O/C1=C\c1cn(NC(=O)[C@@H]2C[C@H](SCc3ccccc3)CN2C(=O)c2ccccc2)c2ccccc12
pIC50: 5.80

In the following, a different compound is considered.
Cytosolic phospholipase A2 (Homo sapiens) assay, compound `O=C(O)c1ccc(OCCc2c(CCNS(=O)(=O)Cc3c(F)cccc3[N+](=O)[O-])n(C(c3ccccc3)c3ccccc3)c3ccc(Cl)cc23)cc1` , recorded pIC50 = 6.55

* * *

Endpoint summary: pIC50, system: Cytosolic phospholipase A2 (Homo sapiens, UniProt P47712), multiple sources combined.
For clarity, pIC50 is expressed as the negative log10 of concentration in mol/L.

Some solved entries appear below for comparison.
COMPOUND: CC(C)CN(Cc1ccccc1)[C@@H]1C[C@@H](CNC(=O)c2ccc(/C=C3\SC(=O)NC3=O)cc2)N(C(=O)c2ccccc2C(=O)c2ccc(F)cc2)C1
pIC50: 7.00

COMPOUND: O=C1NC(=S)S/C1=C\c1ccc(NC(=O)[C@@H]2C[C@H](SCc3ccccc3)CN2S(=O)(=O)N2CCOCC2)cc1
pIC50: 4.85

COMPOUND: O=C(O)c1ccc(OCCc2c(CCNS(=O)(=O)CCn3cnnn3)n(C(c3ccccc3)c3ccccc3)c3ccc(Cl)cc23)cc1
pIC50: 5.96

Per the reported Cytosolic phospholipase A2 (Homo sapiens, UniProt P47712) data, `CC(C)(C)OC(=O)N1C[C@@H](SCc2ccccc2)C[C@H]1C(=O)Nc1ccc(C=C2SC(=S)NC2=O)cc1` has pIC50 of 5.22

The value of pIC50 recorded for `O=C1NC(=O)/C(=C/c2ccc(NC(=O)[C@H]3C[C@H](SCc4ccccc4)CN3S(=O)(=O)c3ccc(-c4ccccc4)cc3)cc2)S1` when tested on Cytosolic phospholipase A2 (Homo sapiens, UniProt P47712) reads 4.82

Record for CC1CCCC(C)N1CCS(=O)(=O)NCCc1c(CCCc2ccc(C(=O)O)cc2)c2cc(Cl)ccc2n1C(c1ccccc1)c1ccccc1 (stereo not drawn) under target or system Cytosolic phospholipase A2 (Homo sapiens, UniProt P47712): pIC50 reported as 7.00

The observed pIC50 for `CN(C)S(=O)(=O)NCCc1c(CCOc2ccc(C(=O)O)cc2)c2cc(Cl)ccc2n1C(c1ccccc1)c1ccccc1` when tested with Cytosolic phospholipase A2 (Homo sapiens, UniProt P47712) stands at 6.70

Form field pIC50 for item `COc1cccc(-c2ccccc2)c1O[C@@H]1C[C@@H](CNC(=O)c2ccc(/C=C3\SC(=O)NC3=O)cc2)N(C(=O)c2ccccc2C(=O)c2ccc(F)cc2)C1` on Cytosolic phospholipase A2 (Homo sapiens, UniProt P47712): 7.82

Tested on Cytosolic phospholipase A2 (Homo sapiens, UniProt P47712), the item Cc1cc(C)c(COC2C[C@@H](C(=O)Nc3ccc(C=C4SC(=O)NC4=O)cc3)N(C(=O)c3ccccc3)C2)c(C)c1 (stereo partly drawn) showed pIC50 equal to 5.00

Entry `O=C(O)c1ccc(OCCc2c(CCNS(=O)(=O)CCN3C[C@@H]4C[C@H]3CO4)n(C(c3ccccc3)c3ccccc3)c3ccc(Cl)cc23)cc1` , Cytosolic phospholipase A2 (Homo sapiens, UniProt P47712) data, pIC50 value: 5.82

Reported Cytosolic phospholipase A2 (Homo sapiens, UniProt P47712) pIC50 for item `O=C(O)c1ccc(OCCc2c(CCNS(=O)(=O)CSc3ccccc3Cl)n(C(c3ccccc3)c3ccccc3)c3ccc(Cl)cc23)cc1` was 6.40

pIC50 of `CCN(Cc1ccccc1-c1ccccc1)[C@@H]1C[C@@H](C(=O)Nc2ccc(/C=C3\SC(=S)NC3=O)cc2)N(C(=O)c2ccccc2C(=O)c2ccc(F)cc2)C1` , assay on Cytosolic phospholipase A2 (Homo sapiens, UniProt P47712), is 6.62
